SYSTEM: T1, SNTB1, Q13884
T1 sequence (Q13884 107-205, limits assumed, looked up): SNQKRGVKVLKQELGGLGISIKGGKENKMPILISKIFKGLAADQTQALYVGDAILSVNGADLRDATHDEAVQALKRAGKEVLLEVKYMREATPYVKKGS
EXPERIMENT: holdup assay
Parameters: key: below the threshold = too weak to quantify, mostly under pKd 3.1 to 4
CONDITION NOTES: plain residues with an end cap or a label only (N-terminal biotin on a linker: ttds)
Record form. Attribute: pKd. Fill in for each entry.

# return recorded pKd for input DPRNTQTSQI [ABRAXAS2, Q15018] 3.96

# return recorded pKd for input LCALPKVTTV [AGMAT, Q9BSE5] 4.73

# return recorded pKd for input LDSQIQETSI [MAP4, P27816] 4.93
